tested on: Chordin-like protein 2 (CHRDL2); test: compounds binding chordin-like 2 – biochemical, small-molecule microarray, 635 nm fluorescence, primary screen (AID 1126); details: fluorescence 635 nm, higher = more signal;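 note: printed compound slides probed with Chrdl2 protein at 4 µg/mL for 1 h at 4 C; score merges 667 nm emission intensity with signal to noise over three replicate slides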
measurement_kind: composite z-score

| compound | assay_system | composite z-score |
| --- | --- | --- |
| CN1C(=O)C2C=CC(C(O)c3ccccc3)N(N3CCCCC3)C2C1=O (stereo unspecified) | Chordin-like protein 2 (CHRDL2) | -0.409 |

Short answer for CCCCC(=C=CC[C@H](O)c1cccc(OCCO)c1)C[C@H](O)c1ccccn1 : composite z-score was 0.23

The measured composite z-score associated with O=C1O[C@H](c2ccccc2)[C@H](c2ccccc2)N2[C@H]1[C@@H](C(=O)N1CCN(c3ncccn3)CC1)[C@]1(C(=O)Nc3ccc(C#CC4=CCCCC4)cc31)[C@H]2c1ccccc1OCCO reads 0.646

Note to self: composite z-score recorded for CO[C@H]1O[C@H](CO)[C@@H](OC(=O)Nc2cccc(F)c2)[C@H](OC(=O)Nc2ccccc2)[C@H]1OC(=O)Nc1ccccc1 was 0.323

Looking up CCCC1(C(=O)OC)C=C2C(=C(c3ccccc3)C(=O)C2C)CN1 (stereo unspecified) , I see its composite z-score listed as 0.108

composite z-score in this record for O=C1C[C@@](C(=O)NCc2ccccc2)(c2ccc([N+](=O)[O-])cc2)[C@@H](c2ccc(CO)cc2)N1CC12CC3CC(CC(C3)C1)C2 : 0.119

composite z-score measured on O=C1[C@@]23C=C(Br)[C@H](C[C@@H]2COC3)[C@]12CO2 = -0.323

----------
target: Fibroblast growth factor 10 (Homo sapiens); assay: compounds binding fibroblast growth factor 10 – biochemical, small-molecule microarray, 635 nm fluorescence, primary screen (AID 1102); details: FGF10 binding, fluorescence 635 nm, higher = more signal
Note to self: values exactly at 0.9 are label 1. So composite z-score at or above 0.9 is label 1, below is label 0.

Worked cases, answers included:
| compound | label_class |
| --- | --- |
| C=C(CCCC)/C(=C/C[C@H](OC(C)=O)c1ccccc1OCCO)c1cnc2ccccc2c1 | label 1 |
| COc1ccc([C@H]2OC[C@@H]3CCC(=O)N32)cc1 | label 0 |

Task: Quick check: does Cc1ccc([C@H]2C(C(=O)O)=CCN2S(=O)(=O)c2ccc(C)cc2)cc1 have composite z-score greater than or equal to 0.9?
Output: label 0

Task: API: above_or_equal(metric=composite z-score, cutoff=0.9) for item O=C1O[C@@H](c2ccccc2)[C@@H](c2ccccc2)N2[C@@H](c3ccc(OCCO)cc3)[C@]3(C(=O)Nc4ccc(C#CCCO)cc43)[C@@H](C(=O)NC[C@H](O)c3ccccc3)[C@H]12
Output: label 0

Task: Is the recorded value of composite z-score equal to or greater than 0.9 for this compound? COC(=O)c1c2oc(c1C(=O)OC)C(=O)NC1(CCCCC1)c1cn(nn1)C[C@H](Cc1ccccc1)NC(=O)N[C@H](CO)CC2
Output: label 1

Task: Answer whether composite z-score of COC(=O)[C@@]1(Cc2ccc(OC)cc2)[C@H]2c3cc(C(=O)N(C)C)n(Cc4ccc(C(F)(F)F)nc4)c3C[C@H]2CN1C(=O)c1ccccc1 is greater than or equal to 0.9.
Output: label 0

Task: For this compound, is measured composite z-score 0.9 or higher? CN1C(=O)C2C=CC(C(O)c3c(F)cccc3Cl)N(NC(=O)OC(C)(C)C)C2C1=O (stereo not drawn)
Output: label 0

----------
tested on: glycogen synthase kinase-3 (GSK3A per assay name; protocol says GSK3B); assay: compounds binding glycogen synthase kinase-3 – biochemical, small-molecule microarray, 635 nm fluorescence, GSK3A, primary screen (AID 1103); conditions: fluorescence 635 nm, higher = more signal; note: the record names both GSK3A and GSK3B
measurement_kind: composite z-score

| molecule | measured_value |
| --- | --- |
| CC(C)[C@@H](C(=O)O)n1cc(C2(O)CCCCC2)nn1 | 1.09 |
| CC1CC/C=C\[C@H]2OC34C=CCN(c5ccc6ccccc6c5)C(=O)[C@H]3N(CCO)C(=O)[C@@H]4C2C(=O)O1 (some centres not stated) | -0.844 |
| O=C1O[C@H](c2ccccc2)[C@H](c2ccccc2)N2[C@H]1[C@@H](C(=O)NC[C@H](O)c1ccccc1)[C@]1(C(=O)Nc3ccccc31)[C@H]2c1ccc(O)cc1 | 0.476 |
| CCCC(=O)N(CCc1c[nH]c2ccccc12)[C@@H]1CC(C(=O)NCCO)=C[C@H](Oc2c(I)cc(CO)cc2OC)[C@H]1O | -0.431 |

Query C=C(/C(=C/C[C@H](OC(=O)c1ccncc1)c1ccc(OCCO)cc1)c1cc(C(=O)OC)ccc1OC)C(C)C yields composite z-score of -0.534

Data point: COc1ccc(-c2cc3c(c(Cc4ccccc4)n2)[Si](C(C)C)(C(C)C)OC3)cn1 ; composite z-score = -0.949

Summary for this molecule, COc1cc(OC)c(C(O)C2C=CC3C(=O)NC(=O)C3N2Nc2ccccn2)cc1Br (configuration not stated) : composite z-score is 0.398

----------
assay: viability profiling in RPMI8226 myeloma cells – cell-based, resazurin fluorescence, basal, 24 h, PK04 Diversity Set, profiling panel (AID 1180); conditions: higher = more signal;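 note: RPMI8826 multiple myeloma cell line at 5000 cells per well; test concentration not given here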
measurement_kind: z-score
Just the number, please.

Record excerpt, results attached:
| compound | z-score |
| --- | --- |
| Cc1ccc(C2C3C(=O)CC4C(=O)N(c5ccccc5)C(=O)C4C3CN2S(=O)(=O)c2ccc(C)cc2)cc1 (centres undefined) | -0.82 |
| COc1ccc(CCNC(=O)[C@@]2(c3ccc([N+](=O)[O-])cc3)CC(=O)N(CC34CC5CC(CC(C5)C3)C4)[C@@H]2c2ccc(CO)cc2I)cc1 | -1.79 |
| OB1C=CCC(CCc2ccccc2)O1 (centres undefined) | 0.23 |

// C=CC[C@@]1(C(=O)N2CCCCC2)N=C(c2ccc(OCCCO)cc2)O[C@@H]1c1ccccc1N=[N+]=[N-] : z-score value = -0.963

----------
assay: changes in parasitized red cell lysis, either direction – P. falciparum Indochina, OD700, 3 h, PSAC antagonist project, primary screen (AID 1156); details: P. falciparum-infected erythrocytes, osmotic lysis, higher = more signal, called active from +8 up or from −8 down
z-score values for the molecules below.
Form rule: numeric answer, no unit written next to it.

| molecule | measurement_kind | measured_value |
| --- | --- | --- |
| CC(C)(C)OC(=O)CC[C@]1(C(N)=O)N=C(c2ccc(OCCCO)cc2)O[C@H]1c1ccccc1 | z-score | -0.524 |

Summary for this molecule, COC(=O)c1c2oc(c1C(=O)OC)C(=O)N[C@@H](C(C)C)Cn1cc(nn1)C1(CCCCC1)NC(=O)N[C@H](CO)CC2 : z-score is 0.144

Record C=C(CCCC)/C(=C/C[C@H](OC(=O)c1ccncc1)c1ccc(OCCO)cc1)c1cc(C(=O)OC)ccc1OC . Reported z-score: 2.24

// CS(=O)(=O)CCOC(=O)C1=CC(CCCO)=CC(c2ccc(CN3CCCC3)cc2)N(Cc2cccc(OC(F)(F)F)c2)C=C1C(=O)OCCS(C)(=O)=O (centres undefined) : z-score value = 0.128

----------
composite z-score values for the compounds below.
test: probe aEGFR binding to arrayed compounds – biochemical, biotinylated probe, 635/667 nm fluorescence, primary screen (AID 1097); details: small-molecule microarray, higher = more signal;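 note: probe is a biotinylated anti-EGFR antibody binding compounds printed on slides; score combines fluorescence near 667 nm and signal to noise of each spot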
// no unit, no text: just the number

Sample answers from the record:
| compound | measurement_kind | measured_value |
| --- | --- | --- |
| O=C(NCCN1CCOCC1)[C@@H]1c2ccccc2C(=O)N(Cc2cc(C(F)(F)F)cc(C(F)(F)F)c2)[C@H]1c1ccc(CO)cc1 | composite z-score | -0.0744 |
| COCCOC(=O)N1C(=O)[C@@]2(c3cc(C#CCCO)ccc31)[C@H](c1ccc(OCCO)cc1)N1[C@H](c3ccccc3)[C@H](c3ccccc3)OC(=O)[C@H]1[C@@H]2C(N)=O | composite z-score | -0.0436 |
| COCC(=C=CC[C@H](O)c1cccc(OCCO)c1)C[C@H](O)c1cc(Cl)cc(Cl)c1O | composite z-score | 0.0837 |
| O=C(O)[C@H](Cc1ccccc1)n1cc(-c2ccccc2)nn1 | composite z-score | 0.119 |
| C=CCN1C(=O)[C@]2(O[C@H](CCO)[C@@H]([Si](C)(C)c3ccc(OC)cc3)[C@@H]2C)c2cc(N(C=O)c3ccccc3)ccc21 | composite z-score | -0.0947 |
| CCCCN1CC=CC23O[C@@H]4/C=C\CCCOC(=O)C4[C@H]2C(=O)N(CCCCCO)[C@@H]3C1=O (stereo not given in full) | composite z-score | -0.324 |

Memo: C=CCOC(=O)[C@H]1[C@@H]2C(=O)O[C@@H](c3ccccc3)[C@@H](c3ccccc3)N2[C@@H](c2ccc(OCCOC(=O)[C@@H]3C[C@@H]4C(=O)N5CCC[C@H]5C(=O)N4[C@@H]3c3cccc(OCCO)c3)cc2)[C@]12C(=O)Nc1ccc(I)cc12 , reported composite z-score: 0.0032

The reported value for CCOC(=O)C1=CC[C@H]2C(=O)N(c3ccccc3)C(=O)[C@@H]12 in terms of composite z-score is 0.08

// composite z-score lookup, compound = CCN(CC)c1ccc(N2CC=CC34O[C@@H]5C=CCOC(=O)[C@@H]5[C@H]3C(=O)N(CCCCCCO)[C@@H]4C2=O)cc1 (stereo not given in full) , result: -0.0987

Sure, the documented composite z-score for [N-]=[N+]=Nc1ccccc1C[C@]1(C(=O)NCc2ccccc2)N=C(c2ccc(OCCCO)cc2)O[C@H]1c1ccccc1N=[N+]=[N-] is -0.067
